Each recorded value in this set is attributed to paper PMC6356680.

This section presents compounds with their documented inhibition at 100 µg/mL values.
System: HSV-1 (29R strain)
Assay: Viral plaque number reduction assay, HSV-1 29R strain
Assay type: cell-based, Herpes Simplex Virus type 1
Details: Human alphaherpesvirus 1, 48 h, tested concentration 100 µg/mL, acyclovir-resistant strain, read-out: % HSV-1 Inhibition ± SD, 29R Strain
Answer format: numeric, % implied, no suffix.

Before answering, review these 3 worked examples.
In: Please look up its inhibition at 100 µg/mL: C[C@H]1C[C@@H](O)[C@]23C(=CCC[C@@H]2[C@@]1(C)CCc1ccoc1)CO[C@H]3O [Compound 1, raspailol]
Out: 0

In: Any idea what inhibition at 100 µg/mL was measured for CC1=CCC[C@H]2C1(C(=O)O)[C@H](O)C[C@H](C)[C@]2(C)CCc1ccoc1 (stereo partly shown) [Compound 3, kerlinic acid] ?
Out: 32

In: Look up inhibition at 100 µg/mL for this compound: C=C1C(C)=CCC[C@@H]1[C@@](C)(CCc1ccoc1)[C@@H](C)CC(=O)OC [Compound 2, raspadiene]
Out: 74

Further cases:
In: Endpoint output: inhibition at 100 µg/mL of CC1=CCC[C@@H]2[C@@](C)(CCc3ccoc3)[C@@H](C)CC[C@]12C [Compound 5, annonene] . Value?
Out: 30.9
